Target: T1, sIL-6R (soluble IL-6 receptor; SBH Sciences) (human, UniProt P08887 20-365)
T1 construct: also called human IL-6R
T1 sequence: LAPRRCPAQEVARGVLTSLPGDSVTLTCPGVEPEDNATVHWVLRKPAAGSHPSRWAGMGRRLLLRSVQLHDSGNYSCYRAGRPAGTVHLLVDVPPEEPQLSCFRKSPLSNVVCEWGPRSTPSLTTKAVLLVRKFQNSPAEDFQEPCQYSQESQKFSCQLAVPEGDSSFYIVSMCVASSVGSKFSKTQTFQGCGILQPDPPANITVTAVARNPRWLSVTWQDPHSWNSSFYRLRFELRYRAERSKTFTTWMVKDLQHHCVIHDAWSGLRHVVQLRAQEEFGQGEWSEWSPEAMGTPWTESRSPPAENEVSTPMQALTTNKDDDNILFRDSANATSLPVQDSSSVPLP
Test: SPR (BIAcore 3000), antibody on chip, sIL-6R analyte, 25 C
In this section we review reported koff values for a set of binders.
# number only, unit s⁻¹ dropped from output

Known koff results, listed for orientation:
• 241# (antibody, human IgG1, kappa, V domains shown) VH: QVQLQESGPGLVRPSQTLSLTCTVSGYSITSDHAWSWVRQPPGRGLEWIGYISYSGMTTYNPSLKSRVTMLRDTSKNQFSLRLSSVTAADTAVYYCARCLARMTAIDFWGQGSLVTVSS VL: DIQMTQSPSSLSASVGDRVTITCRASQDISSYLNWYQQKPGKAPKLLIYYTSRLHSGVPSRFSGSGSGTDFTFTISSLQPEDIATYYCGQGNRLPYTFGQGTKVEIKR = 3.61e-05
• 234# (antibody, human IgG1, kappa, V domains shown) VH: QVQLQESGPGLVRPSQTLSLTCTVSGYSITSDHAWSWVRQPPGRGLEWIGYISYSGMTTYNPSLKSRVTMLRDTSKNQFSLRLSSVTAADTAVYYCARCLARMTAMDYWGQGSLVTVSS VL: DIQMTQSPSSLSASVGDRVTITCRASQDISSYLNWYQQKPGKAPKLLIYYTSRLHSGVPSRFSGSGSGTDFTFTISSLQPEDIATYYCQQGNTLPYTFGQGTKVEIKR = 5.69e-05

Endpoint output: koff of 223# (antibody, human IgG1, kappa, V domains shown, also called Sample # 223) VH: QVQLQESGPGLVRPSQTLSLTCTVSGYSITSDHAWSWVRQPPGRGLEWIGYISYSGMITYNPSLKSRVTMLRDTSKNQFSLRLSSVTAADTAVYYCARCLARMTAIDFWGQGSLVTVSS VL: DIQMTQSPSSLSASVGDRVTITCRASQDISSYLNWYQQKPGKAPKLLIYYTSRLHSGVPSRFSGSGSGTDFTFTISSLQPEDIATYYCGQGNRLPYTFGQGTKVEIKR . Value? 4.91e-05
